# measured.on: BTK wild type (Homo sapiens (Human))
# measurement.notes: Inhibition assay of BTK kinase activity (HTRF)
# Assay type: biochemical
# settings: read-out: BTK IC50
pIC50: −log10 of the molar value.
Listing of recorded pIC50 by entry.

| compound | pIC50 |
| --- | --- |
| N#CCCN1CC[C@@H](n2nc(-c3ccc(Oc4c(F)c(F)cc(F)c4F)cc3F)c3c(N)ncnc32)C1 [Compound 114] | 7.30 |
| C=CC(=O)N1CCCC(n2nc(-c3ccc(Oc4cccc(F)c4[N+](=O)[O-])cc3F)c3c(N)ncnc32)C1 (centres unmarked) [Compound 12] | 8.70 |
| C=CC(=O)NCC1CCC(n2nc(-c3ccc(Oc4c(F)c(F)cc(F)c4F)cc3F)c3c(N)ncnc32)C1 (centres unmarked) [Compound 28] | 8.15 |
| C=CC(=O)N(C)CCCn1nc(-c2ccc(Oc3c(F)c(F)cc(F)c3F)cc2F)c2c(N)ncnc21 [Compound 86] | 8.10 |
| CN/C(=N\C#N)N1CCCC(n2nc(-c3ccc(Oc4c(F)c(F)cc(F)c4F)cc3F)c3c(N)ncnc32)C1 (centres unmarked) [Compound 54] | 5.79 |
| NC(=O)/C=C/C(=O)N1CCCC(n2nc(-c3ccc(Oc4c(F)c(F)cc(F)c4F)cc3F)c3c(N)ncnc32)C1 (centres unmarked) [Compound 41] | 7.77 |
| N#CCN1CC[C@@H](n2nc(-c3ccc(Oc4c(F)c(F)cc(F)c4F)cc3F)c3c(N)ncnc32)C1 [Compound 113] | 6.68 |
| C=CC(=O)N1CCCC(n2nc(-c3ccc(C(=O)c4ccc(F)cc4)c(F)c3)c3c(N)ncnc32)C1 (centres unmarked) [Compound 1] | 7.18 |
| C=CC(=O)N[C@H]1CC[C@@H](n2nc(-c3ccc(Oc4c(F)c(F)cc(F)c4F)cc3F)c3c(N)ncnc32)C1 [Compound 26] | 7.47 |
| C=CC(=O)N[C@H]1CC[C@@H](n2nc(-c3ccc(Oc4c(F)c(F)cc(F)c4F)cc3F)c3c(N)ncnc32)CC1 [Compound 22] | 7.30 |
| N#CN1CC[C@@H](n2nc(-c3ccc(Oc4c(F)c(F)cc(F)c4F)cc3F)c3c(N)ncnc32)C1 [Compound 118] | 7.24 |
| C=CC(=O)N1CCCC(n2nc(-c3ccc(C(=O)c4ccccc4F)cc3F)c3c(N)ncnc32)C1 (centres unmarked) [Compound 4] | 8.70 |
| Nc1ncnc2c1c(-c1ccc(Oc3c(F)c(F)cc(F)c3F)cc1F)nn2[C@@H]1CCN(C(=O)CCl)C1 [Compound 75] | 8.52 |
| Nc1ncnc2c1c(-c1ccc(Oc3c(F)c(F)cc(F)c3F)cc1F)nn2CCN1C(=O)C=CC1=O [Compound 51] | 6.28 |

====

# measurement.notes: Pharmacokinetic study in Beagle dogs
# Assay type: in vivo
# settings: dog, plasma, IV, 2 mg/kg, mean

| mol.smiles | C0 [ng/mL] |
| --- | --- |
| C=CC(=O)N1CC[C@@H](n2nc(-c3ccc(Oc4c(F)c(F)cc(F)c4F)cc3F)c3c(N)ncnc32)C1 | 663 |

====

# measurement.notes: Pharmacokinetic study in Beagle dogs
# Format: in vivo
# settings: dog, plasma, PO, 5 mg/kg, mean

| mol.smiles | AUC(0-inf) |
| --- | --- |
| C=CC(=O)N1CC[C@@H](n2nc(-c3ccc(Oc4c(F)c(F)cc(F)c4F)cc3F)c3c(N)ncnc32)C1 | 0.574 µg·h/mL |

====

# measurement.notes: Pharmacokinetic study in male SD rats
# Type: in vivo
# settings: rat, plasma, IV, 2 mg/kg, mean

| mol.smiles | AUC(0-t) |
| --- | --- |
| C=CC(=O)N1CC[C@@H](n2nc(-c3ccc(Oc4c(F)c(F)cc(F)c4F)cc3F)c3c(N)ncnc32)C1 | 1740 ng·h/mL |

====

# measurement.notes: Toxicokinetic (TK) study in rats, 28-day
# Type: in vivo, rat
# settings: female, rat, in vivo, 40 mg/kg, Study Day 1, Female, read-out: AUC0-24 h
measured.attribute: AUC(0-t)

| compound | test.value |
| --- | --- |
| C=CC(=O)N1CC[C@@H](n2nc(-c3ccc(Oc4c(F)c(F)cc(F)c4F)cc3F)c3c(N)ncnc32)C1 [Compound 45] | 17300 ng·h/mL |

====

# measurement.notes: Pharmacokinetic study in male SD rats
# Format: in vivo
# settings: rat, plasma, IV, 2 mg/kg, mean, read-out: Vdss

| compound | scale.unit | Vd |
| --- | --- | --- |
| C=CC(=O)N1CC[C@@H](n2nc(-c3ccc(Oc4c(F)c(F)cc(F)c4F)cc3F)c3c(N)ncnc32)C1 [Compound 45] | L/kg | 1.61 |

====

# measurement.notes: Toxicokinetic (TK) study in dogs, 28-day
# Assay type: in vivo, dog
# settings: male, dog, in vivo, 45 mg/kg/day, Study Day 1, Male
measured.attribute: Tmax (h)

| compound | measured.attribute | test.value |
| --- | --- | --- |
| C=CC(=O)N1CC[C@@H](n2nc(-c3ccc(Oc4c(F)c(F)cc(F)c4F)cc3F)c3c(N)ncnc32)C1 [Compound 45] | Tmax | 2 |

====

# measurement.notes: Toxicokinetic (TK) study in dogs, 28-day
# Assay type: in vivo, dog
# settings: female, dog, in vivo, 15 mg/kg/day, Study Day 28, Female, read-out: AUC0-24 h

| molecule | AUC(0-t) [ng·h/mL] |
| --- | --- |
| C=CC(=O)N1CC[C@@H](n2nc(-c3ccc(Oc4c(F)c(F)cc(F)c4F)cc3F)c3c(N)ncnc32)C1 [Compound 45] | 3730 |

====

# measurement.notes: Toxicokinetic (TK) study in rats, 28-day
# Assay type: in vivo, rat
# settings: female, rat, in vivo, 40 mg/kg, Study Day 28, Female

| mol.smiles | scale.unit | Tmax |
| --- | --- | --- |
| C=CC(=O)N1CC[C@@H](n2nc(-c3ccc(Oc4c(F)c(F)cc(F)c4F)cc3F)c3c(N)ncnc32)C1 | h | 1 |

====

# measured.on: BTK wild type (Homo sapiens (Human), UniProt Q06187)
# Sequence (Q06187 whole entry): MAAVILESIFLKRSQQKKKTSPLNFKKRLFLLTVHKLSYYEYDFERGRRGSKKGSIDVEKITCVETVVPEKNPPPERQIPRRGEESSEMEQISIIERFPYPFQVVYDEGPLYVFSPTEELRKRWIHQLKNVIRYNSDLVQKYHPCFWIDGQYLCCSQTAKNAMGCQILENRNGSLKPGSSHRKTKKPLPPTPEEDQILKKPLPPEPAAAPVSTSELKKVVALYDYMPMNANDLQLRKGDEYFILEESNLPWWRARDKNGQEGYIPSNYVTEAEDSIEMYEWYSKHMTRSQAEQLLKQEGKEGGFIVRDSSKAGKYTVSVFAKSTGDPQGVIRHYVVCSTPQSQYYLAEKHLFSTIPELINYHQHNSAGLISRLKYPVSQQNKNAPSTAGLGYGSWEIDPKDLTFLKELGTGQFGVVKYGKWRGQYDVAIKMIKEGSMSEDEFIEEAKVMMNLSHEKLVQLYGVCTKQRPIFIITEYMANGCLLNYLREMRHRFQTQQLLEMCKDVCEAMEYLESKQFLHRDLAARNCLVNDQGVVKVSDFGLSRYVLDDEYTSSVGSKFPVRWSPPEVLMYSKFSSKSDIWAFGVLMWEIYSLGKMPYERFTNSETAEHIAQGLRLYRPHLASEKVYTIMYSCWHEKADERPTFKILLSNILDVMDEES
# measurement.notes: Inhibition assay of BTK kinase activity (HTRF)
# Assay type: biochemical
# settings: read-out: BTK IC50
pIC50: −log10 of the molar value.
Decision: pIC50 compared against 8; not below it gives Condition met, below it gives Condition not met.

| compound | answer.label |
| --- | --- |
| Nc1ncnc2c1c(-c1ccc(Oc3c(F)c(F)cc(F)c3F)cc1F)nn2[C@@H]1CCN(C(=O)CCCl)C1 [Compound 58] | Condition not met |
| C=CC(=O)N[C@H]1CC[C@@H](n2nc(-c3ccc(Oc4cccc(F)c4)cc3F)c3c(N)ncnc32)CC1 [Compound 13] | Condition met |
| CNC(=O)/C=C/CNC(=O)N1CC[C@@H](n2nc(-c3ccc(Oc4c(F)c(F)cc(F)c4F)cc3F)c3c(N)ncnc32)C1 [Compound 76] | Condition not met |
| C=CC(=O)NCCn1nc(-c2ccc(Oc3c(F)c(F)cc(F)c3F)cc2F)c2c(N)ncnc21 [Compound 82] | Condition not met |
| C=CC(=O)N1CC[C@@H](n2nc(-c3ccc(Oc4ncccn4)cc3F)c3c(N)ncnc32)C1 [Compound 95] | Condition met |
| C=CC(=O)N1CCC(n2nc(-c3ccc(Oc4cccc(F)c4)cc3F)c3c(N)ncnc32)C1 (stereo not drawn) [Compound 15] | Condition met |
| CNC(=O)N1CCCC(n2nc(-c3ccc(Oc4c(F)c(F)cc(F)c4F)cc3F)c3c(N)ncnc32)C1 (stereo not drawn) [Compound 52] | Condition not met |
| C=CC(=O)N1CCC(Cn2nc(-c3ccc(Oc4c(F)c(F)cc(F)c4F)cc3F)c3c(N)ncnc32)CC1 [Compound 30] | Condition not met |
| C=C(CN1CCCC(n2nc(-c3ccc(Oc4c(F)c(F)cc(F)c4F)cc3F)c3c(N)ncnc32)C1)C(=O)NC (stereo not drawn) [Compound 69] | Condition not met |
| C=C(C)C(=O)N1CC[C@@H](n2nc(-c3ccc(Oc4c(F)c(F)cc(F)c4F)cc3F)c3c(N)ncnc32)C1 [Compound 105] | Condition not met |
| C=CC(=O)N[C@H]1CC[C@@H](n2nc(-c3ccc(Oc4cccc(F)c4)cc3F)c3c(N)ncnc32)C1 [Compound 17] | Condition met |
| Nc1ncnc2c1c(-c1ccc(Oc3c(F)c(F)cc(F)c3F)cc1F)nn2[C@H]1CCCN(C(=O)C(Cl)Cl)C1 [Compound 102] | Condition not met |
| C=CC(=O)N1CCC(n2nc3c4c(ncnc42)Nc2cc(Oc4c(F)c(F)cc(F)c4F)ccc2-3)C1 (stereo not drawn) [Compound 24] | Condition not met |
| CN(C)C/C=C/C(=O)N1CC[C@@H](n2nc(-c3ccc(Oc4c(F)c(F)cc(F)c4F)cc3F)c3c(N)ncnc32)C1 [Compound 91] | Condition met |
| Nc1ncnc2c1c(-c1ccc(Oc3c(F)c(F)cc(F)c3F)cc1F)nn2[C@@H]1CCN(C(=O)/C=C/c2ccccc2F)C1 [Compound 93] | Condition not met |
| CC(C)(C)OC(=O)N1CCCC(n2nc(-c3ccc(Oc4ccccc4[N+](=O)[O-])cc3F)c3c(N)ncnc32)C1 (stereo not drawn) [Compound 10] | Condition not met |
| Nc1ncnc2c1c(-c1ccc(Oc3c(F)c(F)cc(F)c3F)cc1F)nn2[C@@H]1CCN(C(=O)C(=O)C2CC2)C1 [Compound 78] | Condition not met |
| Nc1ncnc2c1c(-c1ccc(Oc3c(F)c(F)cc(F)c3F)cc1F)nn2[C@H]1CC[C@H](N2C(=O)C=CC2=O)C1 [Compound 37] | Condition not met |
| CNC(=O)CN1CCCC(n2nc(-c3ccc(Oc4c(F)c(F)cc(F)c4F)cc3F)c3c(N)ncnc32)C1 (stereo not drawn) [Compound 56] | Condition not met |
| Nc1ncnc2c1c(-c1ccc(Oc3c(F)c(F)cc(F)c3F)cc1F)nn2C1CCCC(N2C(=O)C=CC2=O)C1 (stereo not drawn) [Compound 36] | Condition not met |
| C/C=C(\C(=O)OC)C(=O)N1CCCC(n2nc(-c3ccc(Oc4c(F)c(F)cc(F)c4F)cc3F)c3c(N)ncnc32)C1 (stereo not drawn) [Compound 48] | Condition not met |
